Value source: patent US7732457B2

pIC50: −log10 of the molar value. Where a name gives a salt, the structure may show the parent alone.
Observed pIC50 for human BACE1 (Homo sapiens), reported per entry below.

Task: Please look up its pIC50: CCCCCNc1ccc(-c2ccc(-c3ccccc3Cl)n2Cc2cccc(N)n2)cc1 [Example 53, hydrochloride]
Output: 5.30 to 5.96

Task: Note, next up: CCCOc1ccc(-c2ccc(-c3ccccc3)n2Cc2cccc(N)n2)cc1
Output: 5.30 to 5.96

Task: Note, next up: Cl.N#CCCCCCOc1ccc(-c2ccc(-c3ccccc3Cl)n2Cc2cccc(N)n2)cc1 [Example 20, hydrochloride]
Output: 5.30 to 5.96

====

Where a name gives a salt, the structure may show the parent alone.
Provide the recorded melting point for the entries that follow.

Task: Please look up its melting point: Nc1cccc(Cn2c(-c3ccc(Oc4ncccn4)cc3)ccc2-c2ccccc2Cl)n1 (as salt: hydrochloride) [Example 31]
Output: 135 to 140 °C

Task: Note, next up: Nc1cccc(Cn2c(-c3ccc(Br)cc3)ccc2-c2ccccc2Cl)n1 [Example 4]
Output: 154 to 158 °C

Task: Note, next up: Cl.N#CCCCCCOc1ccc(-c2ccc(-c3ccccc3Cl)n2Cc2cccc(N)n2)cc1 [Example 20]
Output: 98 to 106 °C

Task: Note, next up: CCCCC(=O)Nc1ccc(-c2ccc(-c3ccccc3Cl)n2Cc2cccc(N)n2)cc1 [Example 52]
Output: 145 to 150 °C

Task: Note, next up: Nc1nc(Cn2c(-c3ccc(Br)cc3)ccc2-c2ccccc2Cl)ccc1OCCO [Example 47]
Output: 80 to 82 °C

Task: Note, next up: CCOC(=O)c1ccc(-c2ccc(-c3ccc(F)cc3)n2Cc2cccc(N)n2)cc1 [Example 57]
Output: 172 to 173 °C

Task: Note, next up: CCCCCNc1ccc(-c2ccc(-c3ccccc3Cl)n2Cc2cccc(N)n2)cc1 (as salt: hydrochloride) [Example 53]
Output: 145 to 147 °C

Task: Note, next up: CCCCCOc1ccc(-c2ccc(-c3ccccc3Cl)n2Cc2ccc(OC)c(NCCCO)n2)cc1 (as salt: hydrochloride) [Example 41]
Output: 86 to 88 °C

Task: Note, next up: Nc1cccc(Cn2c(-c3ccc(Oc4ccc(Br)cc4)cc3)ccc2-c2ccccc2Cl)n1 (as salt: hydrochloride) [Example 38]
Output: 130 to 138 °C

Task: Note, next up: CCOC(=O)c1ccc(-c2ccc(-c3ccccc3)n2Cc2cccc(N)n2)cc1 [Example 58]
Output: 161 to 162 °C

Task: Note, next up: Nc1cccc(Cn2c(-c3ccc(O)cc3)ccc2-c2ccccc2Cl)n1 [Example 6]
Output: 170 to 172 °C

Task: Note, next up: Cl.N#CCCCCOc1ccc(-c2ccc(-c3ccccc3Cl)n2Cc2cccc(N)n2)cc1 [Example 19]
Output: 126 to 130 °C

Task: Note, next up: Nc1cccc(Cn2c(-c3ccc(Oc4nccs4)cc3)ccc2-c2ccccc2Cl)n1 (as salt: hydrochloride) [Example 32]
Output: 126 to 130 °C

Task: Note, next up: Nc1cccc(Cn2c(-c3ccc(NC(=O)c4cccc(Br)c4)cc3)ccc2-c2ccccc2Cl)n1 [Example 2]
Output: 116 to 122 °C

Task: Note, next up: Cc1cccc(C(=O)Nc2ccc(-c3ccc(-c4ccccc4Cl)n3Cc3cccc(N)n3)cc2)c1 [Example 1]
Output: 108 to 118 °C

Task: Note, next up: CCCOc1ccc(-c2ccc(-c3ccccc3Cl)n2Cc2ccc(OCCO)c(N)n2)cc1 [Example 54]
Output: 89 to 92 °C
